Test: amyloid nucleation score (Sup35N fusion, yeast selection) (log enrichment); library NNK3; higher = more nucleation; inactive = no reads after selection;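 note: zero at mode of non-aggregating sequences after 7 days selection at 30°C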
Endpoint name: amyloid nucleation score
Could you respond with only the numeric value?

## Input Answer with the recorded amyloid nucleation score for the sequence listed here: "RIFFKVCNVRLSVADFSHYV"
## Output 1.99

## Input Tell me amyloid nucleation score reported for "YCCTLVTRCSVMNTL"
## Output 2.46

## Input Give amyloid nucleation score for the following sequence: "TAYSLMSIVFGWQPPKCGYE"
## Output 0.648

## Input Quick one: give measured amyloid nucleation score for "LSECLRHGSDDTRFEVVGQD"
## Output 1.34

## Input Consider the sequence "LPRPFSYSGLR" and give its recorded amyloid nucleation score.
## Output -0.289

* * *

Assay: amyloid nucleation score (Sup35N fusion, yeast selection) (log enrichment); library NNK3; higher = more nucleation; inactive = no reads after selection
Endpoint name: amyloid nucleation score

Primary sequence	amyloid nucleation score
GSRCSASPKNSESGRGKYFG	inactive
NVMDCSYITNVNIYSHHWDY	2.1
DIDRRQRVMHSPMKAWEEVG	-0.045
CKLCTFSKRLNLTFRMVASL	inactive

## Input Return value of amyloid nucleation score for input "GVYHIQPCMRCRLHKGGSDS" , no commentary.
## Output inactive

## Input Determine from records and report amyloid nucleation score for "LLVYAVENPGLVWNSRHGLF"
## Output -1.37

## Input # return recorded amyloid nucleation score for input "LSAFVQDVLNVIQMLTEREF"
## Output inactive

## Input Please indicate amyloid nucleation score recorded for "VRSTTQHVHLICCNEYFRH"
## Output 2.82

* * *

Assay: amyloid nucleation score (Sup35N fusion, yeast selection) (log enrichment); library NNK3; higher = more nucleation; inactive = no reads after selection
Endpoint name: amyloid nucleation score

Would you please look over these solved cases?
Substance	amyloid nucleation score
TEGRVQMWRINALRECTGSS	inactive
CVPWWLNMPVLDCTLWNSSV	inactive
QLIVRSGKDSGVLWNLGQYR	inactive
LAITNIEWSLFIQWTLI	inactive
IQQGKVYKGTLLLTAYMTSE	1.11
RVFRLCIRFSHA	0.391

## Input Using known records, supply amyloid nucleation score for "WSAECLFLVWRIHSML"
## Output inactive

## Input Tell me measured amyloid nucleation score for "SVIRVMSFG" please.
## Output inactive

## Input Given the substance "ESLEMVWPRAMR" , write its reported amyloid nucleation score.
## Output inactive

## Input Write down amyloid nucleation score measured for item "TKRWHR"
## Output inactive

## Input Dear colleague, please send me the reported amyloid nucleation score for "TCDIRCCTASPLYNRVM" when you can.
## Output 0.129

## Input Name the recorded amyloid nucleation score of the substance listed here: "YVVVCSCAWS"
## Output 2.63

## Input Determine from records and report amyloid nucleation score for "KWMGKNTKSG"
## Output inactive

## Input Identify the reported amyloid nucleation score for the following entry. "YCVSMANKLTCLCKGNSYPN"
## Output 2.4

## Input Give the measured amyloid nucleation score for "RHVVGCSYNVIGCFYVVLRI"
## Output 1.84

* * *

Assay: amyloid nucleation score (Sup35N fusion, yeast selection) (log enrichment); library NNK2; higher = more nucleation; inactive = no reads after selection
Endpoint name: amyloid nucleation score
Give your answer as a number; write no unit.

## Input Give the value of amyloid nucleation score reported for the following: "KGALCLSV"
## Output -0.148

## Input Quote amyloid nucleation score reported for "MAKIFFPNRQVIPPTRMQRV" please.
## Output 1.12

## Input Answer with reported amyloid nucleation score of "RVHSCCTGKIGYKGVIVISV"
## Output 0.051

## Input Supply recorded amyloid nucleation score for "IRQPSVKQPWTVAKTFH" here.
## Output 0.052

## Input Please indicate amyloid nucleation score recorded for "YNGTTLMMGDIGSCSFI"
## Output -0.787

## Input Tell us which amyloid nucleation score value is on record for "LVFHRVTWLTDNMQWKGTPG"
## Output 3.2

## Input Write down amyloid nucleation score measured for item "YKRLEMLRMSCTIWTITPPR"
## Output 0.234

## Input Consider the sequence "IQDLRFNITVTMPLESVSFM" . State its measured amyloid nucleation score.
## Output 7.05

## Input Find the measured amyloid nucleation score of "VCNSLCDSYF" and report it.
## Output -1.28

## Input # return recorded amyloid nucleation score for input "HFILAIFLYCSIWIFEFFSL"
## Output -1.81

## Input For the sequence "ICLVRWDMKSRVDGTSGM" , give its reported amyloid nucleation score.
## Output 5.19

## Input Given "KKAVSACPLEYSVVINISGG" , respond with its amyloid nucleation score.
## Output 7.99

## Input Look up and state reported amyloid nucleation score for "ANHVSKDIFVNCEVKVPHVW"
## Output 5.94

## Input Fill in reported amyloid nucleation score for this entry: "ICSDFGPNSGYRHQWVCIGV"
## Output -0.023

## Input Recall and state the measured amyloid nucleation score for "IVGATYHLSWLPGYTGIYRG" .
## Output 1.25

## Input Retrieve amyloid nucleation score measured for "WEDKVAGSMGAWDDLG" and print it.
## Output 0.791

## Input For the sequence "CLSRHAHRRRGMVYAGDYRA" , give its reported amyloid nucleation score.
## Output -0.256

## Input Read the entry "RKIMNGKV" and write its reported amyloid nucleation score.
## Output -0.414

## Input Hello, please tell me recorded amyloid nucleation score for this one: "VDPPLGKWGAEGCI"
## Output 0.484

## Input Give me measured amyloid nucleation score, please, for this sequence: "CFISQILEFCCSFIFSRDFF"
## Output 0.286

* * *

Assay: amyloid nucleation score (Sup35N fusion, yeast selection) (log enrichment); library NNK1; higher = more nucleation; inactive = no reads after selection
Endpoint name: amyloid nucleation score

Primary sequence	Experimental value
CRGNDKVLPKIGATNCWLST	inactive
HIFHCGNRRFHTIKM	inactive
NEFKFKVRTKEFRFEVCLKY	inactive

* * *

Test: amyloid nucleation score (Sup35N fusion, yeast selection) (log enrichment); library NNK2; higher = more nucleation; inactive = no reads after selection
Endpoint name: amyloid nucleation score

Primary sequence	Experimental value
VLPGVSFFTYRFKKF	inactive
MYISKVFDALLLLRREPRHR	inactive
GVAELNLN	inactive

* * *

Experiment: amyloid nucleation score (Sup35N fusion, yeast selection) (log enrichment); library NNK3; higher = more nucleation; inactive = no reads after selection
Endpoint name: amyloid nucleation score

Below: 7 sequences and their reported amyloid nucleation score.
Primary sequence	Endpoint name	Experimental value
ILLVWNSMLYYTLDTCVNCC	amyloid nucleation score	inactive
KMMARTSNVVEVLCWRTDVA	amyloid nucleation score	0.015
WLLKIMQYLDLAGNG	amyloid nucleation score	inactive
FKCAADCVFLALYYMDGWKS	amyloid nucleation score	inactive
YYGGVLVSHRKPSGVCYGYG	amyloid nucleation score	inactive
VIKALRMVCMGHWSYSVTLS	amyloid nucleation score	inactive
IGINVRALRRGLTLVPL	amyloid nucleation score	inactive

In the following, a different sequence is considered.
## Input Let me know recorded amyloid nucleation score for "QATVISRVYNWAGLSDCVVV" , thanks.
## Output 0.425

* * *

Test: amyloid nucleation score (Sup35N fusion, yeast selection) (log enrichment); library NNK2; higher = more nucleation; inactive = no reads after selection
Assign class by amyloid nucleation score: not lower than 0.04 means Met; lower than 0.04 means Not met.

## Input Form field: amyloid nucleation score at least 0.04? Entry: "FYRNPHR"
## Output Met

## Input hey, is amyloid nucleation score for this one >= 0.04? "SWVRVTSPSIATFSATYCVL"
## Output Met

## Input Form field: amyloid nucleation score at least 0.04? Entry: "ESYLFAWDNGMFYIANDLEF"
## Output Met

## Input Determine whether this substance has amyloid nucleation score no lower than 0.04: "VTALDLMNGIWSRNMPGEVV"
## Output Not met

## Input Record "CSFCRPFVTCILIRSKVCGW" ; criterion: amyloid nucleation score no lower than 0.04. Met?
## Output Met

## Input Say whether "GRCYIISCPESWHKPMYVAI" shows amyloid nucleation score of 0.04 or more.
## Output Met

## Input Can "KLYSQTVSANLGVGWSSS" be said to have amyloid nucleation score at or above 0.04?
## Output Met

## Input Decide: amyloid nucleation score of "DKSFVSLSRFHSGRLEIRVM" >= 0.04?
## Output Not met

## Input Check the entry "CFGFYGAIVD" : does amyloid nucleation score equal or exceed 0.04?
## Output Not met

## Input I'd appreciate it if you could say whether "FNNLFIRTADQEVTILDVTH" has amyloid nucleation score at least equal to 0.04.
## Output Not met

## Input Determine whether this substance has amyloid nucleation score no lower than 0.04: "TSECPVWNSFYVQNGSDLSI"
## Output Met

## Input Please tell me: is the substance "DFISCVLFSLFFRTLSRKGH" at or over 0.04 in terms of amyloid nucleation score?
## Output Not met

## Input Check this substance for amyloid nucleation score at or above 0.04: "LILNLVFFVIPDTVFYTSGL"
## Output Met

## Input Assess whether reported amyloid nucleation score for "LGWASYVYGCGRRGGSCRGW" sits at 0.04 or higher.
## Output Met

## Input Is the recorded value of amyloid nucleation score equal to or greater than 0.04 for this substance? "VCYIPYMLRSHLNALTFLSV"
## Output Not met

## Input Could you please find out whether "YKVYPWLFIYLLLLDRAD" has amyloid nucleation score that meets 0.04 or exceeds it?
## Output Not met

## Input Assess whether reported amyloid nucleation score for "KSRLGCTWSGAHQSIRPLRR" sits at 0.04 or higher.
## Output Met

## Input Does the reported amyloid nucleation score for "FRKEEADYHGYRLYSVAVNA" fall at or above the 0.04 mark?
## Output Not met

## Input Hi, just wondering whether "RRYYNAQHVVVYELEVESLS" shows amyloid nucleation score of 0.04 or higher.
## Output Met

## Input State whether the measured amyloid nucleation score reaches 0.04, counting equality as reaching it, for "NPALSSWAEGSTP"
## Output Met

## Input Please indicate if the recorded amyloid nucleation score for "GFSLNISKCVFLRFIWVFHF" meets or exceeds 0.04.
## Output Not met

## Input Confirm if amyloid nucleation score reported for the substance "VNWVGLSLKIRGYFTVSTWR" is 0.04 or above.
## Output Not met

## Input Form field: amyloid nucleation score at least 0.04? Entry: "GTLPSGICSRKGMPT"
## Output Met

## Input I'd appreciate it if you could say whether "EVSTWQLPMNTDTVEGGSVV" has amyloid nucleation score at least equal to 0.04.
## Output Met

## Input Could you tell me if the measured amyloid nucleation score of "CYAPKYGRHWP" reaches 0.04 or more?
## Output Met

## Input Given the entry "VLGGPTVRLSWFPSSGLACY" , answer whether its amyloid nucleation score meets or surpasses 0.04.
## Output Met

## Input Has "VLILDVVYSLDESEVSVVWY" a recorded amyloid nucleation score greater than or equal to 0.04?
## Output Not met

## Input Textbook exercise: given the entry "APKGMTLFPQMLTLMCNTVG" , state whether its amyloid nucleation score is greater than or equal to 0.04.
## Output Met

## Input Given "RDIGKYRMYDLTKVRAITLT" , state whether its amyloid nucleation score is at least 0.04.
## Output Not met

## Input Is the recorded value of amyloid nucleation score equal to or greater than 0.04 for this substance? "LRQYKRALAVGLDWFPSVLR"
## Output Met

## Input Test whether the substance "TDGELDSPQ" records amyloid nucleation score of 0.04 or higher.
## Output Met

## Input Reported amyloid nucleation score reaches at least 0.04 for "SYYFQAFDYKFLSMVIDAYG" ?
## Output Met

## Input Given "RPMLVVSGGTSVLWDWAASD" , state whether its amyloid nucleation score is at least 0.04.
## Output Met

## Input Does the substance "RFICSAPAVPILIICWS" have recorded amyloid nucleation score that is 0.04 or more?
## Output Not met

## Input State whether the measured amyloid nucleation score reaches 0.04, counting equality as reaching it, for "TNGYSVRLYKGSCVILIGL"
## Output Met

## Input Is the recorded value of amyloid nucleation score equal to or greater than 0.04 for this substance? "RYCVDNW"
## Output Met

## Input Decide: is the reported value of amyloid nucleation score for "SYFHRWRATNFRTHKEAC" equal to or greater than 0.04?
## Output Not met

## Input Check the entry "TLCMRLN" : does amyloid nucleation score equal or exceed 0.04?
## Output Met

## Input Does the reported amyloid nucleation score for "LNKQRSCFNVMGGWRKIYPS" fall at or above the 0.04 mark?
## Output Met

## Input // inclusive: amyloid nucleation score at least 0.04? input: "YKYMGLFSSIFNVLGSLISY"
## Output Not met

## Input Answer whether amyloid nucleation score of "MIGVYDGLRHNVEQGFVWCE" is greater than or equal to 0.04.
## Output Met

## Input Does amyloid nucleation score meet or surpass 0.04 for "ASRKSLPEWLWIAWRHASGT" ?
## Output Met

## Input Reported amyloid nucleation score at or above 0.04? "KGPDITEHTITRGPEGNSRY"
## Output Not met

## Input Reported amyloid nucleation score at or above 0.04? "VAMVVRGTLYPALCPTYWVS"
## Output Met

## Input Evaluate "VSCCCFFGLTLAVLGHSEVS" : amyloid nucleation score at minimum 0.04?
## Output Met

## Input Entry "SCNNLGDLWLSIILVKSET" : is its amyloid nucleation score no less than 0.04?
## Output Met

## Input Could you tell me if the measured amyloid nucleation score of "ISNVNLTE" reaches 0.04 or more?
## Output Not met

## Input Textbook exercise: given the entry "LVKKWVWLLCCYRISWGRLR" , state whether its amyloid nucleation score is greater than or equal to 0.04.
## Output Not met

## Input Identify whether the reported amyloid nucleation score of the following substance is 0.04 or greater: "DREFLGDCWVLAELSKTRLI"
## Output Met

## Input Decide: is the reported value of amyloid nucleation score for "AAKTNCDC" equal to or greater than 0.04?
## Output Not met

## Input Could you verify whether the entry "FWSDSVVFRPDTVRLERSLG" shows amyloid nucleation score of no less than 0.04?
## Output Not met

## Input Does "EKLWIMLTLICNIVRSPSYK" have a reported amyloid nucleation score of at least 0.04?
## Output Not met
